method summary: ATG_TAL_CIS: Attagene CIS-FACTORIAL HepG2 Assay for human TAL Basal Promoter (AID 2282966);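 also: background control endpoint measuring basal TAL promoter reporter mRNA not a specific factor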
run parameters: HepG2 Attagene cis-factorial TAL promoter reporter; actives raise or lower the signal
Active and inactive are the calls of the source. The calls were made as follows: active = hit-call score of the fitted dose curve at least 0.9, where 1 is the maximum; inactive = score below 0.9.
In this exercise, the only acceptable responses are active, inactive

Please review the entries below; each comes with its answer.
molecule=C[N+](C)(C)CCCNS(=O)(=O)C(F)(F)C(F)(F)C(F)(F)C(F)(F)C(F)(F)C(F)(F)C(F)(F)C(F)(F)F label_class=inactive
molecule=CC(c1cc(C(C)(C)C)cc(C(C)(C)C)c1O)c1cc(C(C)(C)C)cc(C(C)(C)C)c1O label_class=inactive
molecule=C=CCCCCCCCCOC(C)=O label_class=inactive
molecule=C=C(C)C(=O)OCCOC(=O)C(=C)C label_class=inactive

Query :: I'd appreciate the recorded outcome for `O=C(Oc1ccccc1)c1ccccc1C(=O)Oc1ccccc1` from this test.
Result :: inactive

====

method summary: ATG_PXRE_CIS: Attagene CIS-FACTORIAL HepG2 Assay for human Pregnane X Receptor Element (PXRE) (AID 2282957)
run parameters: HepG2 Attagene CIS-FACTORIAL PXRE reporter, mRNA; actives raise or lower the signal
Activity calls are given as the source filed them. How the source made its calls: active means hit-call score of the fitted dose curve at least 0.9, where 1 is the maximum; inactive means score below 0.9.
value kind: AC50

molecule=CC/C=C\CCOC(=O)c1ccccc1O result=inactive
molecule="CCCC(C)C(=O)OCC (stereo not drawn)" result=inactive
molecule=O=S(=O)(O)c1ccc(N=Nc2c(O)ccc3ccccc23)cc1 result="31.6 µM (active)"
molecule="CCOC(=O)C1=NN(c2ccc(Cl)cc2Cl)C(C)(C(=O)OCC)C1 (stereo not drawn)" result="9.36 µM (active)"
molecule=CCCCCCO result=inactive

Memo: `C=CCNCC=C` , reported AC50: 52.1 µM (active)

Memo: `CCc1cccc(CC)c1` , reported AC50: inactive

Memo: `O=C1CCCCCCCCCCC1` , reported AC50: 8.96 µM (active)

====

method summary: BSK_BT_Bcell_Proliferation: Viability Assessment in the BioMAP Diversity Plus: BT Assay for B cell Proliferation (AID 2284227)
run parameters: primary human B cells with PBMC
Activity calls are given as the source filed them. Rule for the calls: active = hit-call score of the fitted dose curve at least 0.9, where 1 is the maximum; inactive = score below 0.9.
In this exercise, the only acceptable responses are Yes (active), No (inactive)

Please review the entries below; each comes with its answer.
molecule=C=CC(=O)OCCCCCCCC(C)C label_class=No
molecule="CCC1(C)C(=O)N(Cl)C(=O)N1Cl (stereo unspecified)" label_class=No
molecule=Oc1ccc(/C=C/c2cc(O)cc(O)c2)cc1 label_class=Yes
molecule=CC(C)c1cccc(C(C)C)c1N label_class=No
molecule=CC=C(C)C(C)=O label_class=No
molecule=O=C(Oc1ccccc1)c1ccccc1C(=O)Oc1ccccc1 label_class=Yes

Query :: I'd appreciate the recorded outcome for CCOC(=O)C1=NN(c2ccc(Cl)cc2Cl)C(C)(C(=O)OCC)C1 (stereo unspecified) from this test.
Result :: No

Query :: I'd appreciate the recorded outcome for `CC1(C)CC(O)CC(C)(C)N1[O]` from this test.
Result :: No

Query :: I'd appreciate the recorded outcome for `CC(C)CCCCCOC(=O)CS` from this test.
Result :: No

====

Read-out: Monocyte Chemoattractant Protein-1 (MCP1), CCL2 (gene 6347)
method summary: BSK_SAg_MCP1: BioMAP Diversity Plus: SAg Assay for Monocyte Chemoattractant Protein-1 (MCP1) Biomarker Activity (AID 2283090)
run parameters: primary human HUVEC with PBMC; actives raise or lower the signal
Activity calls are given as the source filed them. Rule for the calls: active = hit-call score of the fitted dose curve at least 0.9, where 1 is the maximum; inactive = score below 0.9.
In this exercise, the only acceptable responses are true (1) (active), false (0) (inactive)

mol=CC(C)CCCCCOC(=O)CS label_class="false (0)"
mol=C=CC(=O)NCOCCCC label_class="false (0)"
mol=CCCCCCCO label_class="false (0)"

Could you now consider this next compound?
Query :: I'd appreciate the recorded outcome for `C=CC(=O)OCCCCCCOC(=O)C=C` from this test.
Result :: true (1)
